assay_protocol: Pharmacokinetics and bioavailability in rats
Type: in vivo
assay_setup: SD rats, calculated according to AUC data, PO vs IV
Structures can show the parent of a compound that is named as a salt.
measured_endpoint: BA(% Oral bioavailability) (%)

* Cc1cn(-c2cc(NC(=O)c3ccc(C)c(C#Cc4cnc5[nH]ncc5c4)c3)cc(C(F)(F)F)c2)cn1 [D767 hydrochloride salt] | 19
* CNc1ncc(C#Cc2cc(C(=O)Nc3cc(-n4cnc(C)c4)cc(C(F)(F)F)c3)ccc2C)cn1 [D800 hydrochloride salt] | 27.1
* Cc1cn(-c2cc(NC(=O)c3ccc(C)c(C#Cc4cnc5[nH]ncc5c4)c3)cc(C(F)(F)F)c2)cn1 [D767 mesylate salt] | 9.4
* Cc1cn(-c2cc(NC(=O)c3ccc(C)c(C#Cc4cnc(NC5CC5)nc4)c3)cc(C(F)(F)F)c2)cn1 [D747 hydrochloride salt] | 35.3

* * *

assay_protocol: Pharmacokinetics and bioavailability in rats
Format: in vivo
assay_setup: both sexes, Sprague-Dawley, rat, plasma, po, SD rats, calculated according to AUC data, PO vs IV; read-out: BA(% Oral bioavailability)
Where a name gives a salt, the structure may show the parent alone.
This section presents compounds with their documented bioavailability values.
measured_endpoint: bioavailability

• Cc1cn(-c2cc(NC(=O)c3ccc(C)c(C#Cc4cnc(NC(C)C)nc4)c3)cc(C(F)(F)F)c2)cn1 [D752 mesylate salt] = 11.5%
• Cc1ccc(C(=O)Nc2cc(-n3ccnc3)cc(C(F)(F)F)c2)cc1C#Cc1cnc2[nH]ncc2c1 [D831 mesylate salt] = 13.8%
• Cc1ccc(C(=O)Nc2ccc(CN3CCN(C)CC3)c(C(F)(F)F)c2)cc1C#Cc1cnc2[nH]ncc2c1 [D824 dimesylate salt] = 58.7%
• CCNc1ncc(C#Cc2cc(C(=O)Nc3cc(-n4cnc(C)c4)cc(C(F)(F)F)c3)ccc2C)cn1 [D755 hydrochloride salt] = 63.3%
• Cc1ccc(C(=O)Nc2ccc(CN3CCN(C)CC3)c(C(F)(F)F)c2)cc1C#Cc1cnc(NC2CC2)nc1 [D825 mesylate salt, trimesylate] = 58.5%
• Cc1cn(-c2cc(NC(=O)c3ccc(C)c(C#Cc4cnc5ccnn5c4)c3)cc(C(F)(F)F)c2)cn1 [D822 mesylate salt] = 31.2%
• Cc1ncn(-c2cc(NC(=O)c3ccc(C)c(C#Cc4cnc5[nH]ncc5c4)c3)cc(C(F)(F)F)c2)n1 [D835 hydrochloride salt] = 8.1%
• Cc1ccc(C(=O)Nc2ccc(CN3CCN(C)CC3)c(C(F)(F)F)c2)cc1C#Cc1cnc2ccnn2c1 [D856 dimesylate salt] = 78%

* * *

assay_protocol: Pharmacokinetics and bioavailability in rats
Format: in vivo
assay_setup: both sexes, Sprague-Dawley, rat, plasma, po, 5 mg/kg, SD rats, PO 5 mg/kg; read-out: Tmax
Structures can show the parent of a compound that is named as a salt.
measured_endpoint: Tmax (min)

- CNc1ncc(C#Cc2cc(C(=O)Nc3cc(-n4cnc(C)c4)cc(C(F)(F)F)c3)ccc2C)cn1 [D800 hydrochloride salt]: 1.98

* * *

assay_protocol: Pharmacokinetics and bioavailability in rats
Assay type: in vivo
assay_setup: both sexes, Sprague-Dawley, rat, plasma, iv, 2.5 mg/kg, SD rats, IV 2.5 mg/kg
Where a name gives a salt, the structure may show the parent alone.
measured_endpoint: half-life (h)

* CCNc1ncc(C#Cc2cc(C(=O)Nc3cc(-n4cnc(C)c4)cc(C(F)(F)F)c3)ccc2C)cn1 [D755 hydrochloride salt] | 26.2

* * *

System: K562R cells (imatinib-resistant cell line)
assay_protocol: tumor cell proliferation, MTT or CCK8 assay, 72 h incubation
Format: cell-based
assay_setup: Homo sapiens, K-562R, imatinib-resistant K562R, read-out: IC50 on tumor cell proliferation, K562R cells
pIC50: −log10 of the molar value.
This section presents compounds with their documented pIC50 values.
measured_endpoint: pIC50

• Cc1ccc(C(=O)Nc2ccc(CN3CCN(C)CC3)c(C(F)(F)F)c2)cc1C#Cc1cnc(NC2CC2)nc1 [D825] = 7.30
• Cc1cn(-c2cc(NC(=O)c3ccc(C)c(C#Cc4cnc(NC[C@H](O)CO)nc4)c3)cc(C(F)(F)F)c2)cn1 [D834] = 6.72
• Cc1cn(-c2cc(NC(=O)c3ccc(C)c(C#Cc4cnc5[nH]ncc5c4)c3)cc(C(C)(C)C)c2)cn1 [D968] = 7.49
• Cc1cn(-c2cc(NC(=O)c3ccc(C)c(C#Cc4cnc5nccn5c4)c3)cc(C(F)(F)F)c2)cn1 [D799] = 6.21
• Cc1ncn(-c2cc(NC(=O)c3ccc(C)c(C#Cc4cnc5[nH]ncc5c4)c3)cc(C(F)(F)F)c2)n1 [D835] = 7.59
• Cc1ccc(C(=O)Nc2ccc(CN3CCN(C)CC3)c(C(F)(F)F)c2)cc1C#Cc1cnc2ccnn2c1 [D856] = 7.17
• Cc1ccc(C(=O)Nc2cccc(C(F)(F)F)c2)cc1C#Cc1cnc2[nH]ncc2c1 [D821] = 7.24
• Cc1cn(-c2cccc(NC(=O)c3ccc(C)c(C#Cc4cnc5[nH]ncc5c4)c3)c2)cn1 [D967] = 6.68
• Cc1cn(-c2cc(NC(=O)c3ccc(C)c(C#Cc4cnc5[nH]ncc5c4)c3)cc(C(F)(F)F)c2)cn1 [D767] = 7.05
• Cc1ccc(C(=O)Nc2ccc(CN3CCOCC3)c(C(F)(F)F)c2)cc1C#Cc1cnc2ccnn2c1 [D931] = 6.29
• Cc1cn(-c2cc(F)cc(NC(=O)c3ccc(C)c(C#Cc4cnc5[nH]ncc5c4)c3)c2)cn1 [D963] = 7.12
• Cc1cn(-c2cc(Cl)cc(NC(=O)c3ccc(C)c(C#Cc4cnc5[nH]ncc5c4)c3)c2)cn1 [D964] = 7.49
• Cc1cn(-c2cc(NC(=O)c3ccc(C)c(C#Cc4cnc5ncnn5c4)c3)cc(C(F)(F)F)c2)cn1 [D798] = 5.91
• Cc1cn(-c2cc(NC(=O)c3ccc(C)c(C#Cc4cnc5ccnn5c4)c3)cc(C(F)(F)F)c2)cn1 [D822] = 6.24
• Cc1cn(-c2cc(NC(=O)c3ccc(C)c(C#Cc4ccc(N)nc4)c3)cc(C(F)(F)F)c2)cn1 [D827] = 7.23
• CCN(CC)c1ncc(C#Cc2cc(C(=O)Nc3cc(-n4cnc(C)c4)cc(C(F)(F)F)c3)ccc2C)cn1 [D807] = 4.85

* * *

assay_protocol: Pharmacokinetics and bioavailability in rats
Assay type: in vivo
assay_setup: both sexes, Sprague-Dawley, rat, plasma, po, 20 mg/kg, SD rats, PO 20 mg/kg
Counter-ions that a name gives are not always drawn.
measured_endpoint: AUC(0-inf) (ng·h/mL)

* Cc1cn(-c2cc(NC(=O)c3ccc(C)c(C#Cc4cnc(NC(C)C)nc4)c3)cc(C(F)(F)F)c2)cn1 [D752 mesylate salt] | 70400

* * *

assay_protocol: Pharmacokinetics and bioavailability in rats
Format: in vivo
assay_setup: both sexes, Sprague-Dawley, rat, plasma, po, 25 mg/kg, SD rats, PO 25 mg/kg
Counter-ions that a name gives are not always drawn.
measured_endpoint: half-life (h)

* Cc1ncn(-c2cc(NC(=O)c3ccc(C)c(C#Cc4cnc5[nH]ncc5c4)c3)cc(C(F)(F)F)c2)n1 [D835 hydrochloride salt] | 8.81
* Cc1ccc(C(=O)Nc2ccc(CN3CCN(C)CC3)c(C(F)(F)F)c2)cc1C#Cc1cnc2ccnn2c1 [D856 dimesylate salt] | 22.2
* Cc1ccc(C(=O)Nc2ccc(CN3CCN(C)CC3)c(C(F)(F)F)c2)cc1C#Cc1cnc(NC2CC2)nc1 [D825 mesylate salt, trimesylate] | 11.5
* Cc1cn(-c2cc(NC(=O)c3ccc(C)c(C#Cc4cnc5[nH]ncc5c4)c3)cc(C(F)(F)F)c2)cn1 [D767 hydrochloride salt] | 7.18
* Cc1ccc(C(=O)Nc2cc(-n3ccnc3)cc(C(F)(F)F)c2)cc1C#Cc1cnc2[nH]ncc2c1 [D831 mesylate salt] | 4.66
* Cc1cn(-c2cc(NC(=O)c3ccc(C)c(C#Cc4cnc5ccnn5c4)c3)cc(C(F)(F)F)c2)cn1 [D822 mesylate salt] | 8.04
* CCNc1ncc(C#Cc2cc(C(=O)Nc3cc(-n4cnc(C)c4)cc(C(F)(F)F)c3)ccc2C)cn1 [D755 hydrochloride salt] | 8.3
* Cc1ccc(C(=O)Nc2ccc(CN3CCN(C)CC3)c(C(F)(F)F)c2)cc1C#Cc1cnc2[nH]ncc2c1 [D824 dimesylate salt] | 8.72
* Cc1cn(-c2cc(NC(=O)c3ccc(C)c(C#Cc4cnc(NC5CC5)nc4)c3)cc(C(F)(F)F)c2)cn1 [D747 hydrochloride salt] | 48.7

* * *

tested_target: BAF3-T315I cells (Ba/F3 cell line stably expressing BCR/ABL T315I) (Homo sapiens, UniProt P00519, T315I, cells depend on it)
assay_protocol: tumor cell proliferation, MTT or CCK8 assay, 72 h incubation
Assay type: cell-based, mice
assay_setup: read-out: IC50 on tumor cell proliferation, BAF3-T315I cells; Ba/F3 expressing BCR/ABL T315I, 72 h, Table 1
Classify: y when GI50 is strictly less than 2000 nM; n when GI50 is not.

* CCNc1ncc(C#Cc2cc(C(=O)Nc3cc(-n4cnc(C)c4)cc(C(F)(F)F)c3)ccc2C)cn1 [D755] | y
* Cc1ccc(C(=O)Nc2ccc(CN3CCN(C)CC3)c(C(F)(F)F)c2)cc1C#Cc1cnc2[nH]ncc2c1 [D824] | y
* Cc1cn(-c2cc(NC(=O)c3ccc(C)c(C#Cc4cnc(NC5CCCCC5)nc4)c3)cc(C(F)(F)F)c2)cn1 [D828] | n
* Cc1cn(-c2cc(NC(=O)c3ccc(C)c(C#Cc4cnc(NC5CC5)nc4)c3)cc(C(F)(F)F)c2)cn1 [D747] | y
* Cc1cn(-c2cc(NC(=O)c3ccc(C)c(C#Cc4cnc(NC(C)(C)C)nc4)c3)cc(C(F)(F)F)c2)cn1 [D806] | y
